Measured K by item
Target Or System: Hyaluronan mediated motility receptor (Homo sapiens) (UniProt O75330)
Sequence (O75330 whole entry): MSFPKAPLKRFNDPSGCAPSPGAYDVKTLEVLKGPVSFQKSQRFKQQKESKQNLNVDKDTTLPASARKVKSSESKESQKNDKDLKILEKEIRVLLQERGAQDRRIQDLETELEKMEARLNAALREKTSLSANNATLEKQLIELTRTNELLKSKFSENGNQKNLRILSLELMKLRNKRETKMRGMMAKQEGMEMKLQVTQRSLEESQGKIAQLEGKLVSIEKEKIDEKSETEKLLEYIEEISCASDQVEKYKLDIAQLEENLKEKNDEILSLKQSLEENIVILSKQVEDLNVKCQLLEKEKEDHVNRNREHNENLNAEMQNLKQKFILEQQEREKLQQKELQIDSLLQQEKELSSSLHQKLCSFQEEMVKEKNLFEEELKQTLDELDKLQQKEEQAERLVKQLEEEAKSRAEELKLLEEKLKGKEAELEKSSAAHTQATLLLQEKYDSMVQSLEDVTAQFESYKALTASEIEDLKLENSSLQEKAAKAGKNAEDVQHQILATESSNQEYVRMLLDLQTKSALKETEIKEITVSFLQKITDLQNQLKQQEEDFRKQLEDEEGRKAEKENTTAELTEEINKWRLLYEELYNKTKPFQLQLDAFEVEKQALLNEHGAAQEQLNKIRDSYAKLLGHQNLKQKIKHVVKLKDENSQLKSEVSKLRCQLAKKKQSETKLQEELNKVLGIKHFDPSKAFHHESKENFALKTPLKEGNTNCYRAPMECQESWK
Test Name: Inhibition of C-terminal His-tagged 7 kDa RHAMM (unknown origin) binding to HA assessed as association constant at 1 nM after 240 secs by SPR method
Measurement Kind: K (×10⁴ /M.s)

> print(dat)
            substance  measurement.kind  number
1  H-FTEAESNMNDLV-NH2                 K     0.8
2  H-EAFEDEEEEIDG-NH2                 K     3.7
3  H-VEGEGEEEGEEY-NH2                 K     0.7
4  H-EEDFGEEAEEEA-NH2                 K     5.7
5  H-SVEAEAEEGEEY-NH2                 K    0.02
6  H-GEFEEEAEEEVA-NH2                 K    0.48
